run description: in vitro
assay context: SD, HW or BN, rat, plasma
Heads up, the class ranges for fraction unbound at 5 h are lo (below 0.01), mid (0.01 to below 0.2), hi (0.2 or more)

q: // return the class label for `CN(C)S(=O)(=O)NC(=O)CCCc1c(-c2ccc(F)cc2)[nH]c2ccc(C#N)cc12`
a: lo

q: Into which category would you place CC(C)(C)NC(=O)NCCN1CCC(CNC(=O)c2cc(Cl)cc(Cl)c2)C1 (configuration not stated) ?
a: mid

q: # bin label for `COc1ccccc1O[C@@H](c1ccccc1)[C@@H]1CNCCO1`
a: hi

q: Which of the defined bands does the recorded fraction unbound at 5 h of `CC(C)(Oc1ccc(Cl)cc1)C(=O)N1CCN(c2ccccn2)CC1` sit within?
a: lo

q: Please let me know in which category the item CC(C)NCC(O)COc1ccc(CCOCC2CC2)cc1 (configuration not stated) belongs.
a: hi

q: Determine which band this compound sits in: `CC(C)Oc1ccc2c(=O)c(-c3ccccc3)coc2c1`
a: lo

q: Into which category would you place `CCC(C)(C)C(=O)O[C@H]1C[C@@H](C)C=C2C=C[C@H](C)[C@H](CC[C@@H](O)C[C@@H](O)CC(=O)O)[C@H]21` ?
a: mid

q: Returns: class label. Input: `C[N+](C)(Cc1ccc(NC(=O)c2ccc(Cl)c(Cl)c2)cc1)C1CCOCC1`
a: hi

q: Bin this entry: COc1ccc(C2(c3cccc(-c4cncnc4)c3)N=C(C)C(N)=N2)cc1C (configuration not stated)
a: hi

q: For `O=C(NCCc1ccc(Cl)cc1)c1cccnc1` , which fraction unbound at 5 h bin applies?
a: mid

q: Note: place this compound into its band. Item: `COCCN(c1cccnc1)P(=O)(c1ccccc1)c1ccccc1`
a: hi

q: Form: Item = `O=C(NC1CC1)c1cn(-c2cccc(C#Cc3cccnc3)c2)c2ncccc2c1=O` ; Class = ?
a: lo

q: Category of `Cc1nccc(-c2ccc(-c3nc4ccncc4c(O)c3C#N)cc2)c1Cl` , please.
a: lo

q: Band assignment needed for `CCc1c(C(=O)C(N)=O)c2c(OCC(=O)O)cccc2n1Cc1ccccc1` please.
a: mid

q: Band of `Nc1cc(-c2cc(C(F)(F)F)ccc2Oc2cc(F)c(S(=O)(=O)Nc3ncns3)cc2Cl)ccn1` ?
a: lo

q: Form field 'band' for `COc1cc2nnc(C(N)=O)c(Nc3ccc(F)cc3F)c2cc1N1CCN(C)CC1`
a: mid

q: Kindly state the category for this compound: `CN(C)CCC1CCN(c2cc(C(=O)NC[C@H]3CC[C@H](CNC(=O)OCC(C)(C)C)CC3)c3ccccc3n2)CC1`
a: mid

q: Category lookup for the compound `Cc1c(Cl)ccc(OC2CCN(CC3CCN([C@@H](Cc4ccc(F)cc4)C(=O)O)CC3)CC2)c1Cl`
a: hi

q: Bin? `N[C@@H](CC(=O)N1CCn2c(nnc2C(F)(F)F)C1)Cc1cc(F)c(F)cc1F`
a: hi

q: In plain terms, what class is `Cc1ccc(S(=O)(=O)Nc2ccc3nc(C)oc3c2)cc1` ?
a: mid

q: Textbook exercise: identify the category of the compound given here, `C[C@@H](NC(=O)Cc1ccc(C2CC2)cc1)c1ccc(OCC(F)(F)F)cn1` , according to its measured value.
a: lo

q: Which bin, given its fraction unbound at 5 h, does `Cc1cc(F)ccc1-n1nc(C(F)(F)F)cc1-c1ccc2c(c1)NC(=O)CO2` occupy?
a: mid

q: Category of `Cc1ccc2c(OCCN3CCC(Cc4cccc(NS(C)(=O)=O)c4)CC3)cccc2n1` , please.
a: mid

q: Lab note: sort `Cc1cccc2cc(CN(Cc3ccco3)C(=O)Nc3cccc(C#N)c3)c(Cl)nc12` into the matching fraction unbound at 5 h band.
a: lo

q: Which category fits this record: CC(C)C(NC(=O)c1ccccc1)C(=O)c1ccc([N+](=O)[O-])cc1 (configuration not stated)
a: mid

q: Which class is correct for the following compound? `CCCCNC(=O)c1ccc(Oc2ccc(CC(=O)O)cc2OC)c(NS(=O)(=O)c2ccc(Cl)cc2Cl)c1`
a: lo

q: Assign a bin to `O=c1cc(N2CCOCC2)nc2n(Cc3cccc4ccccc34)ccn12`
a: mid

q: State the class of the compound shown: C[C@@H](O[C@H]1OCCN(Cc2n[nH]c(=O)[nH]2)[C@H]1c1ccc(F)cc1)c1cc(C(F)(F)F)cc(C(F)(F)F)c1 [APREPITANT]
a: lo

q: Pick a category. Item: `COc1ccc2cc(S(=O)(=O)N[C@H](CC(=O)N[C@H](Cc3ccc(CN4[C@H](C)CCC[C@@H]4C)cc3)C(=O)N(C)C(C)C)c3ccc4c(c3)OCO4)ccc2c1`
a: mid

q: For `CC(C)(C)NS(=O)(=O)c1cncc(-c2ccc3nc(NC(=O)NCC(=O)N4CCCC4)nn3c2)c1` , which fraction unbound at 5 h bin applies?
a: hi

q: Could you tell me which band `Cc1nc(C)c(-c2ccc([C@H]3CC[C@H](CC(N)=O)CC3)cc2)nc1C(N)=O` belongs to?
a: mid

q: Looking at `CC(C)(C)NC(=O)NCCN1CCC(CNC(=O)c2cc(Cl)cc(Cl)c2)CC1` , which class would you pick?
a: mid

q: Kindly identify the class of `O=C(NCCc1ccccc1)c1cc(-n2ncc(=O)[nH]c2=O)ccc1Cl` .
a: mid

q: Assign a bin to `O=S(=O)(Nc1ncns1)c1cc(F)c(Oc2cc(F)c(Cl)cc2-c2cn[nH]c2)cc1F`
a: lo

q: Please let me know in which category the item `N#Cc1ccc2ccc(=O)n(CCN3CC[C@@H](NCc4ccc5c(n4)NC(=O)CO5)[C@@H](F)C3)c2c1` belongs.
a: hi

q: Please let me know in which category the item `C=CCN(C)CCCCCCOc1ccc(C(=O)c2ccc(Br)cc2)c(F)c1` belongs.
a: lo

q: Which category does the recorded fraction unbound at 5 h put `O=C(CN1CCN(CCC2CCOCC2)CC1)NC12CC3CC(CC(C3)C1)C2` in?
a: hi
